Consider the following compounds and their measured percentage of the remaining compound readings.
# procedureDetails: pH stability of quenched linker-payloads in buffers (LCMS)
# Assay type: physicochemical
# assayConditions: DMSO, 7 Day, RT
reportedProperty: percentage of the remaining compound

>>> measuredvalue("CCCC1O[C@@H]2C[C@H]3[C@@H]4CCC5=CC(=O)C=C[C@]5(C)[C@H]4[C@@H](O)C[C@]3(C)[C@]2(C(=O)COCN(C)C(=O)CNC(=O)OCc2ccc(NC(=O)[C@H](CCCNC(N)=O)NC(=O)[C@@H](NC(=O)CCOCCOCCOCCOCCNC(=O)CCC(=O)N3Cc4ccccc4-c4c(nnn4CCOCCOCCOCCOCCC(=O)NCCS(=O)(=O)O)-c4ccccc43)C(C)C)cc2)O1 (stereo partly shown) [Q1L1-PII-8]")
"100%"
>>> measuredvalue("CCCC1O[C@@H]2C[C@H]3[C@@H]4CCC5=CC(=O)C=C[C@]5(C)[C@H]4[C@@H](O)C[C@]3(C)[C@]2(C(=O)COC2CCCN2C(=O)CNC(=O)CCOCCOCCOCCOCCNC(=O)CCC(=O)N2Cc3ccccc3-c3c(nnn3CC3OC4OC5C(CO)OC(OC6C(CO)OC(OC7C(CO)OC(OC8C(CO)OC(OC9C(CO)OC(OC3C(O)C4O)C(O)C9O)C(O)C8O)C(O)C7O)C(O)C6O)C(O)C5O)-c3ccccc32)O1 (stereo partly shown) [Q2L6-PII-9]")
"92%"
>>> measuredvalue("CC(C)[C@H](NC(=O)CCOCCOCCOCCOCCNC(=O)CCC(=O)N1Cc2ccccc2-c2c(nnn2CCOCCOCCOCCOCCC(=O)NCCS(=O)(=O)O)-c2ccccc21)C(=O)N[C@@H](CCCNC(N)=O)C(=O)Nc1ccc(COC(=O)NCC(=O)NCOCC(=O)[C@@]2(O)[C@H](C)C[C@H]3[C@@H]4CCC5=CC(=O)C=C[C@]5(C)[C@@]4(F)[C@@H](O)C[C@@]32C)cc1 [Q1L1-PI]")
"100%"
>>> measuredvalue("CCCC1O[C@@H]2C[C@H]3[C@@H]4CCC5=CC(=O)C=C[C@]5(C)[C@H]4[C@@H](O)C[C@]3(C)[C@]2(C(=O)COCNC(=O)CNC(=O)CCC(=O)N2Cc3ccccc3-c3c(nnn3CC3OC4OC5C(CO)OC(OC6C(CO)OC(OC7C(CO)OC(OC8C(CO)OC(OC9C(CO)OC(OC3C(O)C4O)C(O)C9O)C(O)C8O)C(O)C7O)C(O)C6O)C(O)C5O)-c3ccccc32)O1 (stereo partly shown) [Q2L7-PII-1]")
"97%"

----------
Consider the following molecules and their measured percentage of the remaining compound readings.
# procedureDetails: pH stability of quenched linker-payloads in buffers (LCMS)
# Assay type: physicochemical
# assayConditions: pH 5.0, 1 Day, RT
reportedProperty: percentage of the remaining compound (%)

>>> measuredvalue("CCCC1O[C@@H]2C[C@H]3[C@@H]4CCC5=CC(=O)C=C[C@]5(C)[C@H]4[C@@H](O)C[C@]3(C)[C@]2(C(=O)COCNC(=O)CNC(=O)CCC(=O)N2Cc3ccccc3-c3c(nnn3CC3OC4OC5C(CO)OC(OC6C(CO)OC(OC7C(CO)OC(OC8C(CO)OC(OC9C(CO)OC(OC3C(O)C4O)C(O)C9O)C(O)C8O)C(O)C7O)C(O)C6O)C(O)C5O)-c3ccccc32)O1 (stereo partly shown)")
100
>>> measuredvalue("CCCC1O[C@@H]2C[C@H]3[C@@H]4CCC5=CC(=O)C=C[C@]5(C)[C@H]4[C@@H](O)C[C@]3(C)[C@]2(C(=O)COC2CCCN2C(=O)CNC(=O)CCOCCOCCOCCOCCNC(=O)CCC(=O)N2Cc3ccccc3-c3c(nnn3CC3OC4OC5C(CO)OC(OC6C(CO)OC(OC7C(CO)OC(OC8C(CO)OC(OC9C(CO)OC(OC3C(O)C4O)C(O)C9O)C(O)C8O)C(O)C7O)C(O)C6O)C(O)C5O)-c3ccccc32)O1 (stereo partly shown)")
92
>>> measuredvalue("CC(C)[C@H](NC(=O)CCOCCOCCOCCOCCNC(=O)CCC(=O)N1Cc2ccccc2-c2c(nnn2CCOCCOCCOCCOCCC(=O)NCCS(=O)(=O)O)-c2ccccc21)C(=O)N[C@@H](CCCNC(N)=O)C(=O)Nc1ccc(COC(=O)NCC(=O)NCOCC(=O)[C@@]2(O)[C@H](C)C[C@H]3[C@@H]4CCC5=CC(=O)C=C[C@]5(C)[C@@]4(F)[C@@H](O)C[C@@]32C)cc1")
100
>>> measuredvalue("CCCC1O[C@@H]2C[C@H]3[C@@H]4CCC5=CC(=O)C=C[C@]5(C)[C@H]4[C@@H](O)C[C@]3(C)[C@]2(C(=O)COCN(C)C(=O)CNC(=O)OCc2ccc(NC(=O)[C@H](CCCNC(N)=O)NC(=O)[C@@H](NC(=O)CCOCCOCCOCCOCCNC(=O)CCC(=O)N3Cc4ccccc4-c4c(nnn4CCOCCOCCOCCOCCC(=O)NCCS(=O)(=O)O)-c4ccccc43)C(C)C)cc2)O1 (stereo partly shown)")
100

----------
# procedureDetails: pH stability of quenched linker-payloads in buffers (LCMS)
# Assay type: physicochemical
# assayConditions: pH 4.0, 4 Day, RT
reportedProperty: percentage of the remaining compound (%)

>>> measuredvalue("CC(C)[C@H](NC(=O)CCOCCOCCOCCOCCNC(=O)CCC(=O)N1Cc2ccccc2-c2c(nnn2CCOCCOCCOCCOCCC(=O)NCCS(=O)(=O)O)-c2ccccc21)C(=O)N[C@@H](CCCNC(N)=O)C(=O)Nc1ccc(COC(=O)NCC(=O)NCOCC(=O)[C@@]2(O)[C@H](C)C[C@H]3[C@@H]4CCC5=CC(=O)C=C[C@]5(C)[C@@]4(F)[C@@H](O)C[C@@]32C)cc1")
100
>>> measuredvalue("CCCC1O[C@@H]2C[C@H]3[C@@H]4CCC5=CC(=O)C=C[C@]5(C)[C@H]4[C@@H](O)C[C@]3(C)[C@]2(C(=O)COCN(C)C(=O)CNC(=O)OCc2ccc(NC(=O)[C@H](CCCNC(N)=O)NC(=O)[C@@H](NC(=O)CCOCCOCCOCCOCCNC(=O)CCC(=O)N3Cc4ccccc4-c4c(nnn4CCOCCOCCOCCOCCC(=O)NCCS(=O)(=O)O)-c4ccccc43)C(C)C)cc2)O1 (stereo partly shown)")
98
>>> measuredvalue("CCCC1O[C@@H]2C[C@H]3[C@@H]4CCC5=CC(=O)C=C[C@]5(C)[C@H]4[C@@H](O)C[C@]3(C)[C@]2(C(=O)COCNC(=O)CNC(=O)CCC(=O)N2Cc3ccccc3-c3c(nnn3CC3OC4OC5C(CO)OC(OC6C(CO)OC(OC7C(CO)OC(OC8C(CO)OC(OC9C(CO)OC(OC3C(O)C4O)C(O)C9O)C(O)C8O)C(O)C7O)C(O)C6O)C(O)C5O)-c3ccccc32)O1 (stereo partly shown)")
100
>>> measuredvalue("CCCC1O[C@@H]2C[C@H]3[C@@H]4CCC5=CC(=O)C=C[C@]5(C)[C@H]4[C@@H](O)C[C@]3(C)[C@]2(C(=O)COC2CCCN2C(=O)CNC(=O)CCOCCOCCOCCOCCNC(=O)CCC(=O)N2Cc3ccccc3-c3c(nnn3CC3OC4OC5C(CO)OC(OC6C(CO)OC(OC7C(CO)OC(OC8C(CO)OC(OC9C(CO)OC(OC3C(O)C4O)C(O)C9O)C(O)C8O)C(O)C7O)C(O)C6O)C(O)C5O)-c3ccccc32)O1 (stereo partly shown)")
0

----------
# procedureDetails: pH stability of quenched linker-payloads in buffers (LCMS)
# Assay type: physicochemical
# assayConditions: pH 5.0, day 2
Consider the following compounds and their measured P: percentage of budesonide released from the linker-payloads readings.
reportedProperty: P: percentage of budesonide released from the linker-payloads

>>> measuredvalue("CCCC1O[C@@H]2C[C@H]3[C@@H]4CCC5=CC(=O)C=C[C@]5(C)[C@H]4[C@@H](O)C[C@]3(C)[C@]2(C(=O)COCN(C)C(=O)CNC(=O)OCc2ccc(NC(=O)[C@H](CCCNC(N)=O)NC(=O)[C@@H](NC(=O)CCOCCOCCOCCOCCNC(=O)CCC(=O)N3Cc4ccccc4-c4c(nnn4CCOCCOCCOCCOCCC(=O)NCCS(=O)(=O)O)-c4ccccc43)C(C)C)cc2)O1 (some centres unmarked)")
"0%"
>>> measuredvalue("CCCC1O[C@@H]2C[C@H]3[C@@H]4CCC5=CC(=O)C=C[C@]5(C)[C@H]4[C@@H](O)C[C@]3(C)[C@]2(C(=O)COCNC(=O)CNC(=O)OCc2ccc(O[C@@H]3O[C@H](CO)[C@@H](O)[C@H](O)[C@H]3O)c(C(=O)NCCNC(=O)COC3C#CCCCCC3)c2)O1 (some centres unmarked)")
"0%"
>>> measuredvalue("CCCC1OC2CC3C4CCC5=CC(=O)C=CC5(C)C4C(O)CC3(C)C2(C(=O)COCN2CCCC(NC(=O)OCc3ccc(NC(=O)C(CCCNC(N)=O)NC(=O)C(NC(=O)CCOCCOCCOCCOCCNC(=O)CCC(=O)N4Cc5ccccc5-c5c(nnn5CCOCCOCCOCCOCCC(=O)NCCS(=O)(=O)O)-c5ccccc54)C(C)C)cc3)C2=O)O1 (mixture of isomers)")
"0%"
>>> measuredvalue("CCCC1O[C@@H]2C[C@H]3[C@@H]4CCC5=CC(=O)C=C[C@]5(C)[C@H]4[C@@H](O)C[C@]3(C)[C@]2(C(=O)COC2CCCN2C(=O)CNC(=O)CCOCCOCCOCCOCCNC(=O)CCC(=O)N2Cc3ccccc3-c3c(nnn3CCOCCOCCOCCOCCC(=O)NCCS(=O)(=O)O)-c3ccccc32)O1 (some centres unmarked)")
"10%"
>>> measuredvalue("CCCC1OC2CC3C4CCC5=CC(=O)C=CC5(C)C4C(O)CC3(C)C2(C(=O)COC2CCN2C(=O)CNC(=O)CCOCCOCCOCCOCCNC(=O)CCC(=O)N2Cc3ccccc3-c3c(nnn3CCOCCOCCOCCOCCC(=O)NCCS(=O)(=O)O)-c3ccccc32)O1 (mixture of isomers)")
"0%"
